target: Clo SugE
pKd: −log10 of the molar value.

- Smiles text: "N=C(N)N"
  pKd: "~3.00"

src = paper PMC5360189
